Test: Selectivity ratio of IC50 for human MCF-10A cells to MIC for methicillin-resistant Staphylococcus aureus ATCC 33591
Assay type: toxicity
In plain terms, low selectivity ratio, meaning strictly below 1, gives MET, and everything else gives NOT MET.

Record excerpt, results attached:
| compound | assigned class |
| --- | --- |
| COc1cc(OC)cc([C@H]2c3cc(/C=C/c4cc(O)cc(O)c4)ccc3O[C@@H]2c2ccc(O)cc2)c1 (relative stereo) | NOT MET |
| Oc1ccc([C@H]2Oc3ccc(/C=C/c4cc(O)cc(O)c4)cc3[C@@H]2c2cc(O)cc(O)c2)cc1 (relative stereo) | NOT MET |
| COc1cc(/C=C/c2ccc3c(c2)[C@H](c2cc(O)cc(O)c2)[C@@H](c2ccc(O)cc2)O3)cc(OC)c1 | NOT MET |
| COc1cc(OC)cc([C@@H]2[C@@H](c3ccc(O)cc3)c3c(OC)cc(OC)cc3[C@H]2[C@@H](OC)c2ccc(O)cc2)c1 | NOT MET |
| COc1cc(/C=C/c2ccc3c(c2)[C@H](c2cc(OC)cc(OC)c2)[C@@H](c2ccc(O)cc2)O3)cc(OC)c1 | MET |

Now examine the next entry.
Q: In plain terms, does COc1cc(OC)cc(C(C(OC)OC)C(c2cc(OC)cc(OC)c2)C(c2ccc(O)cc2)c2ccc(O)cc2)c1 (centres undefined) come in under 1 for selectivity ratio?
A: NOT MET

---

System: Staphylococcus aureus
Test: Antimicrobial activity against vancomycin-resistant Staphylococcus aureus 510 after 24 hrs by broth microdilution method
Type: functional
experimental readout: MIC (µM)
Quick reminder: number only, in µM, skip the unit.

| compound | experimental readout | reported |
| --- | --- | --- |
| COc1cc(/C=C/c2ccc(OC(c3cc(O)cc(O)c3)C(OC)c3ccc(O)cc3)cc2)cc(OC)c1 (racemic) | MIC | 4 |
| CN[C@H](CC(C)C)C(=O)N[C@H]1C(=O)N[C@@H](CC(N)=O)C(=O)N[C@H]2C(=O)N[C@H]3C(=O)N[C@H](C(=O)N[C@H](C(=O)O)c4cc(O)cc(O)c4-c4cc3ccc4O)[C@H](O)c3ccc(c(Cl)c3)Oc3cc2cc(c3O[C@@H]2O[C@H](CO)[C@@H](O)[C@H](O)[C@H]2O[C@H]2C[C@](C)(N)[C@H](O)[C@H](C)O2)Oc2ccc(cc2Cl)[C@H]1O | MIC | 22 |

Q: Provide only the value of recorded MIC for COc1cc(OC)cc([C@H]2c3cc(/C=C/c4cc(O)cc(O)c4)ccc3O[C@@H]2c2ccc(O)cc2)c1 (relative stereo)
A: 4

Q: Could you please provide reported MIC for COc1cc(/C=C/c2ccc3c(c2)[C@H](c2cc(O)cc(O)c2)[C@@H](c2ccc(O)cc2)O3)cc(OC)c1 ? Thanks!
A: 2

---

Tested on: Staphylococcus aureus
Assay: Antimicrobial activity against methicillin-resistant Staphylococcus aureus ATCC 33591 after 24 hrs by broth microdilution method
Type: functional
Entries and their measured MIC follow.
I only need the number, in µM, no unit after it.

Use these answered entries as a reference point.
| compound | target or test system | experimental readout | reported |
| --- | --- | --- | --- |
| COc1cc(OC)cc([C@@H]2[C@@H](c3cc(OC)cc(OC)c3)[C@H](c3ccc(O)cc3)O[C@@H]2c2ccc(O)cc2)c1 | Staphylococcus aureus | MIC | 121 |
| CN[C@H](CC(C)C)C(=O)N[C@H]1C(=O)N[C@@H](CC(N)=O)C(=O)N[C@H]2C(=O)N[C@H]3C(=O)N[C@H](C(=O)N[C@H](C(=O)O)c4cc(O)cc(O)c4-c4cc3ccc4O)[C@H](O)c3ccc(c(Cl)c3)Oc3cc2cc(c3O[C@@H]2O[C@H](CO)[C@@H](O)[C@H](O)[C@H]2O[C@H]2C[C@](C)(N)[C@H](O)[C@H](C)O2)Oc2ccc(cc2Cl)[C@H]1O [VANCOMYCIN] | Staphylococcus aureus | MIC | 0.69 |
| COc1cc(OC)cc([C@@H]2[C@@H](c3ccc(O)cc3)c3c(OC)cc(OC)cc3[C@H]2[C@H](O)c2ccc(O)cc2)c1 | Staphylococcus aureus | MIC | 121 |
| COc1cc(OC)cc([C@@H]2[C@@H](c3ccc(O)cc3)c3c(OC)cc(OC)cc3[C@H]2[C@@H](O)c2ccc(O)cc2)c1 | Staphylococcus aureus | MIC | 121 |
| COc1cc(OC)cc([C@@H]2[C@@H](c3ccc(O)cc3)c3c(OC)cc(OC)cc3[C@H]2[C@@H](OC)c2ccc(O)cc2)c1 | Staphylococcus aureus | MIC | 15 |
| Oc1ccc([C@H]2Oc3ccc(/C=C/c4cc(O)cc(O)c4)cc3[C@@H]2c2cc(O)cc(O)c2)cc1 (relative stereo) | Staphylococcus aureus | MIC | 35 |
| COc1cc(/C=C/c2ccc3c(c2)[C@H](c2cc(O)cc(O)c2)[C@@H](c2ccc(O)cc2)O3)cc(OC)c1 | Staphylococcus aureus | MIC | 22 |
| COc1cc(OC)c2c(c1)[C@H]1[C@H](c3ccc(O)cc3)c3c(OC)cc(OC)cc3[C@H]1[C@@H]2c1ccc(O)cc1 | Staphylococcus aureus | MIC | 31 |
| COc1cc(/C=C/c2ccc(OC(c3cc(O)cc(O)c3)C(OC)c3ccc(O)cc3)cc2)cc(OC)c1 (racemic) | Staphylococcus aureus | MIC | 8 |
| COc1cc(OC)cc([C@H]2c3cc(/C=C/c4cc(O)cc(O)c4)ccc3O[C@@H]2c2ccc(O)cc2)c1 (relative stereo) | Staphylococcus aureus | MIC | 4 |

Q: Supply reported MIC belonging to this compound: COc1cc(OC)cc(C(C(OC)OC)C(c2cc(OC)cc(OC)c2)C(c2ccc(O)cc2)c2ccc(O)cc2)c1 (stereo not drawn)
A: 14

Q: Annotate the compound COc1cc(/C=C/c2ccc(O)cc2)cc(OC)c1 [PTEROSTILBENE] with its measured MIC.
A: 31

Q: Using known records, supply MIC for COc1cc(OC)cc(C(Oc2ccc(/C=C/c3cc(O)cc(O)c3)cc2)C(OC)c2ccc(O)cc2)c1 (stereo not drawn)
A: 62

---

Test: Selectivity ratio of IC50 for human MCF-10A cells to MIC for methicillin-resistant Staphylococcus aureus ATCC 33591
Type: toxicity
experimental readout: selectivity ratio
Form rule: numeric answer, no unit written next to it.

Worked set:
| molecule | selectivity ratio |
| --- | --- |
| COc1cc(OC)c2c(c1)[C@H]1[C@H](c3ccc(O)cc3)c3c(OC)cc(OC)cc3[C@H]1[C@@H]2c1ccc(O)cc1 | 0.7 |
| COc1cc(OC)cc(C(Oc2ccc(/C=C/c3cc(O)cc(O)c3)cc2)C(OC)c2ccc(O)cc2)c1 (stereo not drawn) | 0.4 |

Attention now shifts to the item below.
Q: State its selectivity ratio: COc1cc(/C=C/c2ccc(OC(c3cc(O)cc(O)c3)C(OC)c3ccc(O)cc3)cc2)cc(OC)c1 (racemic)
A: 3.4

---

Consider the following compounds and their measured MIC readings.
Test system: Staphylococcus aureus
Test: Antimicrobial activity against methicillin-resistant Staphylococcus aureus ATCC 33591 after 24 hrs by broth microdilution method
Format: functional

| compound | target or test system | reported |
| --- | --- | --- |
| COc1cc(OC)cc([C@@H]2[C@@H](c3ccc(O)cc3)c3c(O)cc(O)cc3[C@H]2[C@H](OC)c2ccc(O)cc2)c1 | Staphylococcus aureus | > 249 µM |
| COc1cc(OC)cc([C@@H]2[C@@H](c3ccc(O)cc3)c3c(O)cc(O)cc3[C@H]2[C@@H](OC)c2ccc(O)cc2)c1 | Staphylococcus aureus | > 249 µM |

Q: Identify measured MIC corresponding to COc1cc(OC)c2c(c1)[C@@H]([C@@H](OC)c1ccc(O)cc1)[C@H](c1cc(O)cc(O)c1)[C@H]2c1ccc(O)cc1
A: > 249 µM

Q: Supply measured MIC of COc1cc(OC)cc([C@@H]2[C@@H](c3ccc(O)cc3)c3c(O)cc(O)cc3[C@H]2C(O)c2ccc(O)cc2)c1 (stereo not given in full) in your reply.
A: > 256 µM

---

Test system: Staphylococcus aureus
Assay: Antimicrobial activity against methicillin-resistant Staphylococcus aureus ATCC 33591 after 24 hrs by broth microdilution method
Format: functional
MIC for assorted compounds

Q: Quick one: give measured MIC for Oc1ccc(/C=C/c2cc(O)cc(O)c2)cc1
A: > 561 µM

---

System: Staphylococcus aureus
Assay: Antimicrobial activity against methicillin-resistant Staphylococcus aureus ATCC 33591 after 24 hrs by broth microdilution method
Assay type: functional
# reported MIC; entries follow

| molecule | target or test system | experimental readout | reported |
| --- | --- | --- | --- |
| COc1cc(/C=C/c2ccc(OC(c3cc(OC)cc(OC)c3)C(O)c3ccc(O)cc3)cc2)cc(OC)c1 (stereo not given) | Staphylococcus aureus | MIC | > 242 µM |
| COc1cc(OC)cc([C@@H](C(OC)OC)[C@@H](c2cc(O)cc(O)c2)C(c2ccc(O)cc2)c2ccc(O)cc2)c1 | Staphylococcus aureus | MIC | > 234 µM |
| COc1cc(/C=C/c2ccc3c(c2)[C@H](c2cc(OC)cc(OC)c2)[C@@H](c2ccc(O)cc2)O3)cc(OC)c1 | Staphylococcus aureus | MIC | > 251 µM |
| Oc1ccc([C@@H]2c3c(O)cc(O)cc3[C@H]3[C@H](c4ccc(O)cc4)c4c(O)cc(O)cc4[C@@H]23)cc1 | Staphylococcus aureus | MIC | > 282 µM |

Let us examine a further case.
Q: Note MIC for the molecule shown: COC(c1ccc(O)cc1)[C@@H]1c2cc(O)cc(O)c2[C@H](c2ccc(O)cc2)[C@H]1c1cc(O)cc(O)c1 (stereo not given in full)
A: > 263 µM
